Target: CD44v6-Fc ECD (exons 1-5, v6 exon 10, exons 15-17) (Homo sapiens), P16070
Sequence (P16070 whole entry, looked up, change not shown, the tested form may be a part): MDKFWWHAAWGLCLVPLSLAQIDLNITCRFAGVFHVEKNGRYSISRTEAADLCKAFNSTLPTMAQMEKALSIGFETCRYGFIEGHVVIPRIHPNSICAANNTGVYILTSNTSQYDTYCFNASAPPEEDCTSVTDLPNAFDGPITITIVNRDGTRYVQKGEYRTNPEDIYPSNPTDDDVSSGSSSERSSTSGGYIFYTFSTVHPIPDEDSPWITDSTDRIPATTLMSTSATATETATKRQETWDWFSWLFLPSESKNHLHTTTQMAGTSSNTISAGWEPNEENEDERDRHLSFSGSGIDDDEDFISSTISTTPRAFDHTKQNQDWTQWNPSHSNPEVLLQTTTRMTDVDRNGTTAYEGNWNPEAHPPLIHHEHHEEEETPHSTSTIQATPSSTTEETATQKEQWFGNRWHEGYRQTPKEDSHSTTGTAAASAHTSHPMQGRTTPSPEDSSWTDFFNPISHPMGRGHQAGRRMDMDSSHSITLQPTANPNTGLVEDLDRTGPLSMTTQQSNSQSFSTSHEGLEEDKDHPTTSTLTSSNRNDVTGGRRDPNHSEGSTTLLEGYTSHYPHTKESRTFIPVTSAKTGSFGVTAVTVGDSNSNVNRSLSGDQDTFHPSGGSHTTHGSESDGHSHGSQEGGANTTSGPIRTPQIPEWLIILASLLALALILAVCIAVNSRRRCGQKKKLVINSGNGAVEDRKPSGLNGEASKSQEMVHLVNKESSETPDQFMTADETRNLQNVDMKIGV
Assay: ELISA
Conditions: N-terminal biotin on peptide, Fc fusion of CD44v6
Ends that are not written are not given here. * marks the point of attachment. Biotin = O=C1N[C@H]2[C@H](CS[C@H]2CCCCC(=O)*)N1
Observed Property: Kd (µM)
Answers are plain numbers, in µM.

Biotin-GSGWAGPRVSSVYYAGAR [WAG]
8.67

Query :: I'd like to know its Kd. The binder in question is Biotin-GSGPFTVSVPFVWNFTAD [PFT]
Result :: 0.743
